Data provenance is ChEMBL document CHEMBL3621080.

- assay overview: Antiproliferative activity against human HuH7 cells assessed as growth inhibition incubated for 48 hrs by MTT assay
- Assay type: functional, cell-based
- condition label: Huh-7, 48 h
Cut-off 1000 nM on IC50: below means Y, at or above means N.

[[record]]
compound = "Cl.O=C(CN1CCCCC1)NC1(CO)CSC2=C1C(=O)c1ccccc1C2=O (configuration not stated)"
cat = "Y"

[[record]]
compound = "O=C(NC1(C(=O)NCc2ccc(Cl)cc2)CSC2=C1C(=O)c1ccccc1C2=O)c1ccc(Cl)cc1 (configuration not stated)"
cat = "Y"

[[record]]
compound = "COc1cccc2c1C(=O)c1c(O)c3c(c(O)c1C2=O)C[C@@](O)(C(=O)CO)C[C@@H]3O[C@H]1C[C@H](N)[C@H](O)[C@H](C)O1"
cat = "N"

[[record]]
compound = "O=C(NC1(CO)CSC2=C1C(=O)c1ccccc1C2=O)c1ccc(Cl)cc1 (configuration not stated)"
cat = "N"

[[record]]
compound = "O=C(CNCc1ccc(Cl)cc1)NC1(CO)CSC2=C1C(=O)c1ccccc1C2=O (configuration not stated)"
cat = "N"

[[record]]
compound = "O=C(CNc1ccc(Cl)cc1)NC1(CO)CSC2=C1C(=O)c1ccccc1C2=O (configuration not stated)"
cat = "N"

